STUDY TARGET: NL20 human bronchial epithelial cells expressing human Z-AAT (Homo sapiens (Human), UniProt P01009, E366K)
Sequence (P01009 25-418 E366K limits assumed): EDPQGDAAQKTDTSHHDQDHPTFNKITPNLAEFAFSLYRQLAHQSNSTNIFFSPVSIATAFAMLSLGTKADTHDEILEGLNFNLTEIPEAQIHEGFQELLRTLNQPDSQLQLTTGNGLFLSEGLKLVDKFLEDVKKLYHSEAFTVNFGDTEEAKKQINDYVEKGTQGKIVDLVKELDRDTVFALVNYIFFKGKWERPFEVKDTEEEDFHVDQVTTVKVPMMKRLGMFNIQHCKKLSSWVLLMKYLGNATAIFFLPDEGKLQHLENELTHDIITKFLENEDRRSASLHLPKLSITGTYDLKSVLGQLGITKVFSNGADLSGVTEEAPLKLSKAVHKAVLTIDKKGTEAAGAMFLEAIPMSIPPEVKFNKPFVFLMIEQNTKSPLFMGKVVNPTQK
PROCEDURE SUMMARY: AAT Function Assay (MSD Assay NL20-SI Cell Line)
CONDITIONS: functionally active AAT (AAT-hNE complex, MSD) in supernatant of NL20 cells expressing human Z-AAT; read-out: NL20 Functional EC50
REPORTED METRIC: EC50

{"columns": ["COMPOUND", "REPORTED METRIC", "RESULT"],
 "data": [
  ["Cc1cc(-n2c(C)c(C(C)C(=O)O)c3cc(O)ccc32)ccc1F (centres unmarked)", "EC50", "> 2000 nM"],
  ["Cc1cc(-n2c(C(C)C)c([C@H]3C[C@@H](C(=O)O)C3)c3cc(O)c(F)cc32)ccc1F", "EC50", "> 2000 nM"],
  ["CC(C)(CCc1c(C2CCOCC2)n(-c2ccc(F)cc2)c2ccc(O)cc12)C(=O)O", "EC50", "500 to 2000 nM"],
  ["Cc1cc(-n2c(C)c(C#N)c3cc(O)c(N)cc32)ccc1F", "EC50", "> 2000 nM"],
  ["COCC(C)(C)c1c(-c2ccc(C(=O)O)cc2)c2cc(O)c(Cl)cc2n1-c1ccc(F)cc1", "EC50", "< 500 nM"],
  ["CC(C)(CCc1c(C2CCOCC2)n(-c2ccc(F)c(Cl)c2)c2ccc(O)cc12)C(=O)O", "EC50", "500 to 2000 nM"],
  ["N#Cc1c(C2CC2)n(-c2ccc(F)cc2)c2ccc(O)cc12", "EC50", "< 500 nM"],
  ["Cc1cc(-n2c(C(F)(F)F)c(C3CC4(CC(C(=O)O)C4)C3)c3cc(O)ccc32)ccc1F (centres unmarked)", "EC50", "500 to 2000 nM"]
]}
